# System: HepG2
# Assay explanation: cytotoxicity call (relative viability < 0.9)
# Condition label: 10 µM
Screen size: about 39,000 compounds; about 3,300 (8.5%) were called active. What follows is part of a selection rich in actives, with near analogues and random picks from the rest.
Possible outcomes: active, inactive

Smiles entry: C[C@@H]1CCCCO[C@@H](CN(C)C(=O)Nc2cccc3ccccc23)[C@@H](C)CN([C@H](C)CO)C(=O)c2cc(NS(=O)(=O)c3cccs3)ccc2O1
Assigned category: inactive
//
Smiles entry: C[C@@H]1CN([C@H](C)CO)C(=O)c2cccc(NS(=O)(=O)c3cccs3)c2O[C@@H]1CN(C)Cc1ccc(-c2ccccc2)cc1
Assigned category: inactive
//
Smiles entry: C[C@H]1CN([C@@H](C)CO)C(=O)c2cccc(NC(=O)c3ccncc3)c2O[C@@H]1CN(C)Cc1ccc(Oc2ccccc2)cc1
Assigned category: inactive
//
Smiles entry: CC(C)NC(=O)N(C)C[C@H]1Oc2c(NS(=O)(=O)c3ccccc3)cccc2C(=O)N([C@H](C)CO)C[C@@H]1C
Assigned category: inactive
//
Smiles entry: C[C@@H]1CN([C@@H](C)CO)C(=O)c2cccc(NS(=O)(=O)c3cccs3)c2O[C@@H]1CN(C)Cc1ccc(-c2ccccc2)cc1
Assigned category: active
//
Smiles entry: OCCC12CC3CC(CC(C3)C1)C2
Assigned category: inactive
//
Smiles entry: C[C@H](CO)N1C[C@H](C)[C@@H](CN(C)Cc2ccc(C(F)(F)F)cc2)Oc2c(NS(=O)(=O)c3ccc(Cl)cc3)cccc2C1=O
Assigned category: inactive
